Test: absolute recovery over mixed-bed multilayer solid-phase extraction; higher = better recovery
Details: wastewater effluent; enrichment method: SPE
Quantity: absolute recovery

{"columns": ["Compound", "Result"],
 "data": [
  ["CSc1nc(N)nc(NC(C)(C)C)n1", "101%"]
]}

input: // returns reported absolute recovery for input O=C([O-])c1cccc(Oc2ccccc2)c1
output: 96.1%

input: Follow-up entry: CC(=O)SC1CC2=CC(=O)CCC2(C)C2CCC3(C)C(CCC34CCC(=O)O4)C12 (centres undefined)
output: 87.9%

input: Try this compound too: CC(C)(C)C(=O)C(Oc1ccc(Cl)cc1)n1ccnc1 (centres undefined)
output: 91.7%

input: One more compound: Nc1ccc(S(=O)(=O)[N-]c2ccccn2)cc1
output: 88.1%

input: What about CCC1(c2cccc(O)c2)CCCC[NH+](C)C1 (centres undefined) ?
output: 86.5%

input: Follow-up entry: O=C(C1CCCCC1)N1CC(=O)N2CCc3ccccc3C2C1 (centres undefined)
output: 87.2%

---

compounds and their reported absolute recovery
Experiment: absolute recovery over mixed-bed multilayer solid-phase extraction; higher = better recovery
Conditions: surface water; enrichment method: SPE
The answer is to be given in %; state only the numeric part.

{"columns": ["Compound", "Unit string", "absolute recovery"],
 "data": [
  ["CCNc1nc(O)nc(NCC)n1 [Simazin-2-hydroxy]", "%", 78.7]
]}

input: Entry under review: CCOP(=O)(OCC)OC(=CCl)c1ccc(Cl)cc1Cl . Reported absolute recovery?
output: 86.4

input: Another compound: CCOc1nc2cccc(C(=O)[O-])c2n1Cc1ccc(-c2ccccc2-c2nnn[n-]2)cc1
output: 97.3

input: Try the compound Cc1ccc(NC=O)c(C)c1
output: 101

---

Test: absolute recovery over vacuum-assisted evaporative concentration; higher = better recovery
Conditions: wastewater influent; enrichment method: VEC
Quantity: absolute recovery (%)
Kindly answer with a numeric value in %, unit omitted.

{"columns": ["Molecule", "Result number"],
 "data": [
  ["CNC(=C[N+](=O)[O-])NCCS(=O)Cc1ccc(C[NH+](C)C)o1 (stereo not given) [Ranitidin-S-oxid]", 142]
]}

input: If you can, please state the reported absolute recovery value of Cc1ccc(NC=O)c(C)c1 [2-4-dimethylphenylformamid] .
output: 132

input: And what about the molecule CCOP(=O)(OCC)OC(=CCl)c1ccc(Cl)cc1Cl [Chlorfenvinphos] ?
output: 104

input: Consider next the molecule CNC(=O)Oc1cccc2c1OC(C)(C)C2 [Carbofuran] in the same way.
output: 96.7

---

Test: absolute recovery over vacuum-assisted evaporative concentration; higher = better recovery
Conditions: wastewater effluent; enrichment method: VEC
Quantity: absolute recovery (%)
The figure you give is taken to be in %; do not add the unit.

{"columns": ["Molecule", "Unit string", "absolute recovery"],
 "data": [
  ["COc1ccc2c3c1OC1C(=O)CCC4C(C2)[NH+](C)CCC314 (stereo not drawn) [Hydrocodone]", "%", 103],
  ["CCOC(=O)C1(c2ccccc2)CC[NH+](C)CC1 [Meperidine]", "%", 99.2],
  ["CCN(C)C(=O)Oc1cccc(C(C)[NH+](C)C)c1 (stereo not drawn) [Rivastigmin]", "%", 102],
  ["CCNC(=O)NC(=O)C(C#N)=NOC [Cymoxanil]", "%", 53.4],
  ["CC(C)N(C(=O)C(=O)[O-])c1ccccc1 [Propachlor-OXA]", "%", 105]
]}

input: // lookup absolute recovery for O=C(C1CCCCC1)N1CC(=O)N2CCc3ccccc3C2C1 (stereo not drawn) [Praziquantel]
output: 88.4

input: For N#Cc1cc(I)c([O-])c(I)c1 [Ioxynil] then?
output: 106

input: Follow-up item: O=C([O-])C[N-]S(=O)(=O)C(F)(F)C(F)(F)C(F)(F)C(F)(F)C(F)(F)C(F)(F)C(F)(F)C(F)(F)F [FOSAA]
output: 117

input: Also C=CC(=O)OCCOC(=O)CCC(=O)[O-] [Mono(2-acryloyloxyethyl)-succinate] , if possible.
output: 79.2

input: And for CCCCOCCOCCOCc1cc2c(cc1CCC)OCO2 [Piperonyl-butoxide] ?
output: 125

input: Now consider CC(C)N(Cc1ccccc1)C(=O)C(C)(C)C [Tebutam] and answer again.
output: 52.3

input: Ok, now CNC(=O)ON=CC(C)(C)SC [Aldicarb]
output: 99.1

input: Please answer likewise for COC(=O)c1ccc(I)cc1S(=O)(=O)[N-]C(=O)Nc1nc(C)nc(OC)n1 [Iodosulfuron-methyl]
output: 116

input: One more molecule: COC=C(C(=O)OC)c1ccccc1Oc1cc(Oc2ccccc2C#N)ncn1 [Azoxystrobin]
output: 102

input: Follow-up entry: CCCCC(=O)N(Cc1ccc(-c2ccccc2-c2nnn[n-]2)cc1)C(C(=O)[O-])C(C)C (stereo not drawn) [Valsartan]
output: 103

input: Can you handle NC(=O)N1c2ccccc2C(O)C(O)c2ccccc21 (stereo not drawn) [Carbamazepin-10-11-dihydro-10-11-dihydroxy] next?
output: 97.7

input: Again, but for CCS(=O)(=O)c1cccnc1S(=O)(=O)[N-]C(=O)Nc1nc(OC)cc(OC)n1 [Rimsulfuron]
output: 93.8

input: Same question, COC(=O)C(C)N(C(=O)Cc1ccccc1)c1c(C)cccc1C (stereo not drawn) [Benalaxyl] this time
output: 97.6

input: Ok, now CC(=O)SC1CC2=CC(=O)CCC2(C)C2CCC3(C)C(CCC34CCC(=O)O4)C12 (stereo not drawn) [Spironolacton]
output: 93.7

input: Then what about the molecule COCCN(C(=O)CCl)c1c(C)cccc1C [Dimethachlor] ?
output: 94.3

input: Thanks! And COc1ccc2c3c1OC1C(O)C=CC4C(C2)[NH+](C)CCC341 (stereo not drawn) [Codein] ?
output: 104

input: Could you do the same for COc1ccc(C(=CC(=O)N2CCOCC2)c2ccc(Cl)cc2)cc1OC [Dimethomorph] , please?
output: 116

input: What would you report for CC[NH+](CC)CCNC(=O)c1cc(Cl)c(N)cc1OC [Metoclopramid] ?
output: 102

input: Moving on to the next molecule: O=c1[nH]cc(F)c(=O)[nH]1 [5-Fluorouracil]
output: 79.1

input: Quick one: C[NH2+]C(C)C(O)c1ccccc1 (stereo not drawn) [Ephedrin]
output: 107

input: Note, next up: Cc1ccc2[nH]nnc2c1 [5-Methyl-Benzotriazol]
output: 102

input: O=c1[nH]sc2ccccc12 [Benzisothiazolin-3-on (=BIT)] ?
output: 86.7

Source listed as the supplement of paper PMC6470124.
